Here the recorded Rel. Affinity is given for each entry.
- Experimental System: CD33 antigen (human) (UniProt P20138)
- Experimental Details: competition with 125I-labelled native antibody on HEL 92.1.7 cells; IC50 (reference) / IC50 (sample)

Binder	Rel. Affinity
Conjugate of 4-4-(3-oxopropyl)phenoxy!butanoic acid (18) condensed with Calicheamicin N-acetyl gamma dimethyl hydrazide and h-P67.6 (antibody, V domains shown, drug-linker amide on lysine side chains, sites not stated; drug-linker amide on lysine side chains, sites not stated) VH: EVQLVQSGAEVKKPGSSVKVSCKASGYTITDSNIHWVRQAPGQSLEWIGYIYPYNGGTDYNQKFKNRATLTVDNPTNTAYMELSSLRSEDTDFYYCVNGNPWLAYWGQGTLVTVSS VL: DIQLTQSPSTLSASVGDRVTITCRASESLDNYGIRFLTWFQQKPGKAPKLLMYAASNQGSGVPSRFSGSGSGTEFTLTISSLQPDDFATYYCQQTKEVPWSFGQGTKVEVKR	0.8
Conjugate of 4-(2-acetyl-5-methoxyphenoxy!butanoic acid (17) condensed with Calicheamicin N-acetyl gamma dimethyl hydrazide and h-P67.6 (antibody, V domains shown, drug-linker amide on lysine side chains, sites not stated; drug-linker amide on lysine side chains, sites not stated) VH: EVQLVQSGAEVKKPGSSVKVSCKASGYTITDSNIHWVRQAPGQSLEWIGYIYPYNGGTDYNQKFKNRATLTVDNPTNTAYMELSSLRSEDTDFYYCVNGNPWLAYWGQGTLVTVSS VL: DIQLTQSPSTLSASVGDRVTITCRASESLDNYGIRFLTWFQQKPGKAPKLLMYAASNQGSGVPSRFSGSGSGTEFTLTISSLQPDDFATYYCQQTKEVPWSFGQGTKVEVKR	0.98
Conjugate of 4-(4-formyl-2-methoxyphenoxy)butanoic acid (11) condensed with Calicheamicin N-acetyl gamma dimethyl hydrazide and h-P67.6 (antibody, V domains shown, drug-linker amide on lysine side chains, sites not stated; drug-linker amide on lysine side chains, sites not stated) VH: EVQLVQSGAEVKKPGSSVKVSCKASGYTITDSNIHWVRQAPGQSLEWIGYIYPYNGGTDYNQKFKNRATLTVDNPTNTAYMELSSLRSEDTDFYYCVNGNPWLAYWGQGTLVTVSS VL: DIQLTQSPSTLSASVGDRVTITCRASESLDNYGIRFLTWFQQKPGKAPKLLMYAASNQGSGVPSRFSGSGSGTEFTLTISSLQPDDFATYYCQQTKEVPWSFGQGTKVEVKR	0.73
